# system: Histone-lysine N-methyltransferase NSD2 (Homo sapiens)
# Sequence (O96028 whole entry): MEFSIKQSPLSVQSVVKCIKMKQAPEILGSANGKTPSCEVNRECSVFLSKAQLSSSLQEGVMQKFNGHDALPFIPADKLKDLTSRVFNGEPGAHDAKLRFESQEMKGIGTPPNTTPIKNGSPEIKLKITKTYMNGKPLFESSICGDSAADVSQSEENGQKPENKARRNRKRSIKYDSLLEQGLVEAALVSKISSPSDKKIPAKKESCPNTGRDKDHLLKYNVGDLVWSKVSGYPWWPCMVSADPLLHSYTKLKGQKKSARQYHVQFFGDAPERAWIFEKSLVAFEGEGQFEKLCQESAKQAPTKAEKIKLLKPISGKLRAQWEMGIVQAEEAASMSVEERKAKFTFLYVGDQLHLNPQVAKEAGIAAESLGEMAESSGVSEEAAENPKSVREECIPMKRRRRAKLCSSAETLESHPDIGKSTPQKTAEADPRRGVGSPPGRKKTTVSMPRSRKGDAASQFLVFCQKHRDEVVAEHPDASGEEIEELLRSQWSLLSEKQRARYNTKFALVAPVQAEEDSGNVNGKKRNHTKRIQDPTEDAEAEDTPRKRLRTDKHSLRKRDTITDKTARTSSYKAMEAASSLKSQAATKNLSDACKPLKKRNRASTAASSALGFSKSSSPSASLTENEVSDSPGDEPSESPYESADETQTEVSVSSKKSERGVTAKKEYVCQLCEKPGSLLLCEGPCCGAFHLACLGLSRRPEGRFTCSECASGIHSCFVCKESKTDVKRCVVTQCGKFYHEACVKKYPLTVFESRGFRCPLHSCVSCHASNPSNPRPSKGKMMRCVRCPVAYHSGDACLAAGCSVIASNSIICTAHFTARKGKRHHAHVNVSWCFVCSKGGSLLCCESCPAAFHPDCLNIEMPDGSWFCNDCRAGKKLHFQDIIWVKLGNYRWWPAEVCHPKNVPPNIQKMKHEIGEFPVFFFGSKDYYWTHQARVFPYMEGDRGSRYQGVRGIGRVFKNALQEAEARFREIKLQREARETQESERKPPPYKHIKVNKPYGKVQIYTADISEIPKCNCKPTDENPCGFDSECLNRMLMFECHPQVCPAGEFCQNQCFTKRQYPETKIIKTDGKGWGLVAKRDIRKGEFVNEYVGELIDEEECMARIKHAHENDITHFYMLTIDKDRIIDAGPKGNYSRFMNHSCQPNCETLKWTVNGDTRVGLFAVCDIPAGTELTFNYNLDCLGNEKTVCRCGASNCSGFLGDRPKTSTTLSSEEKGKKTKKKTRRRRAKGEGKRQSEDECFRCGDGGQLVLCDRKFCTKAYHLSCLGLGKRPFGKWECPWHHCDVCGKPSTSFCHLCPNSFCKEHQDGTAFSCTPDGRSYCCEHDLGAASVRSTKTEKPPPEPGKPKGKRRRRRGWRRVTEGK
# Format: biochemical
The source made the active and inactive calls.
Log the outcome using a class from active, inactive

// return assay outcome for CCOc1ccc2nc3cc(N=Nc4ccc(N)nc4N)ccc3c(N)c2c1
inactive

// return assay outcome for CCOC(=O)NCCc1c(C)nc2c(c(C)nn2C(C)(C)C)c1C
inactive

Assay result, entry COCC/N=c1\scc(-c2ccco2)n1/N=C/c1ccc(O)c(O)c1O — outcome?
active

Which result was noted for this compound in the test: O=C1NC(=O)N(c2ccccc2)C(=O)/C1=C/c1ccc([N+](=O)[O-])s1
inactive

Outcome? CN(C)c1ccc(C=c2c3ccccc3n3c2c2c([n+]3C)CCCC2)cc1
active

What was the test verdict on CCN(CC)CCN=C(S)Nc1ccc2nc(N3CCCC3)cc(C)c2c1 ?
inactive

Outcome logged for COC(=O)CCCCC1=CCC2C(=O)C=C(O)C2C1 (stereo not drawn) in this assay:
inactive

Hi, do you know how Cc1ccc(O)c(CNc2cccc3cccnc23)c1 came out in this test?
inactive

Values from ChEMBL document CHEMBL1201862
